Measurement Description: Cytotoxicity against human THLE2 cells after 72 hrs by vialight cell proliferation assay
Format: cell-based, THLE-2
Stated Conditions: read-out: LC50
Observation Type: CC50 at 72 h

Which CC50 at 72 h value belongs to `CCCc1nc(C)c2c(=O)[nH]c(-c3cc(S(=O)(=O)N4CCN(CC)CC4)ccc3OCC)nn12` ?
> 100 µM

Which CC50 at 72 h value belongs to `CCCc1nn(C)c2c(=O)[nH]c(-c3cc(S(=O)(=O)N4CCN(C)CC4)ccc3OCC)nc12` ?
> 100 µM

Which CC50 at 72 h value belongs to `CCCc1nc(C)c2c(=O)[nH]c(-c3cc(-c4ccc(C(=O)NO)cc4)ccc3OCC)nn12` ?
> 100 µM
